measurement-target: WrbA (Escherichia coli, UniProt P0A8G6)
Construct: recombinant WrbA protein
Sequence (P0A8G6 2-198): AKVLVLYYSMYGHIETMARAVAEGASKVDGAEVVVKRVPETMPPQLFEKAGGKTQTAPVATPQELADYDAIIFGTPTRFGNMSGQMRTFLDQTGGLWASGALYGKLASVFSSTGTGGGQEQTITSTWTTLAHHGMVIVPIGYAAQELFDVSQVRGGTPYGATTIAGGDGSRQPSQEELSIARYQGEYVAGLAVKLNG
method-notes: microscale thermophoresis (MST)
reported-conditions: read-out: K d ± confidence
Entries and their Kd
// note: answer is a bare numeric in µM

* CC1(C)CC(=O)c2c(O)cc(OCC(=O)NCc3cccc(Cl)c3)cc2O1 [1d] | 5

Problem: Answer with reported Kd of CC1(C)CC(=O)c2c(O)cc(OCC(=O)NCc3cccc4ccccc34)cc2O1 [1e]
Result: 2.1

Problem: Answer with reported Kd of CC1(C)CC(=O)c2c(O)cc(OCC(N)=O)cc2O1 [1a]
Result: 18.7

Problem: Answer with reported Kd of CC1(C)CC(=O)c2c(O)cc(OCC(=O)NCCNCc3ccccc3)cc2O1 [1c]
Result: 1.4
